System: J774 macrophages
Assay: Toxicity against J774 macrophages (IC50)
Type: cell-based
Conditions: Mus musculus, Tables I-III, V
PROPERTY NAME: IC50 (µM)
Give bare numbers, in µM.

The following compounds have reported results that may help.
{"COMPOUND": "CC(C)NC(=N)c1ccc(OCCCOc2ccc(-c3cc4ccc(C(=N)NC(C)C)cc4o3)cc2)cc1.Cl.Cl [Compound 69, dihydrochloride]", "IC50 [µM]": 9.9}
{"COMPOUND": "Cl.Cl.N=C(N)c1ccc(OCCCCOc2ccc(-c3cc4ccc(C(=N)N)cc4o3)cc2)cc1 [Compound 71, dihydrochloride]", "IC50 [µM]": 0.86}
{"COMPOUND": "N=C(N)c1ccc(OCCCCCOc2ccc(C(=N)N)cc2)cc1 [Pentamidine, pentamidine, reference compound]", "IC50 [µM]": 23}

Give measured IC50 for every item shown.
1. Cl.Cl.N=C(N)c1ccc(OCCCCOc2cccc(-c3cc4cc(C(=N)N)ccc4o3)c2)cc1 [Compound 35, dihydrochloride]
2. Cl.Cl.N=C(N)c1ccc(OCCCCCOc2cccc(-c3cc4ccc(C(=N)N)cc4o3)c2)cc1 [Compound 62, dihydrochloride]
3. Cl.Cl.c1cc(OCCCOc2ccc(C3=NCCN3)cc2)cc(-c2cc3cc(C4=NCCN4)ccc3o2)c1 [Compound 34, dihydrochloride]

## Output
9.6
5.6
7.1

----------
Tested on: Cryptococcus neoformans
Experiment: Anti-fungal data: Cryptococcus neoformans
Assay type: cell-based
Settings: strain H99, read-out: Cryptococcus neoformans (H99) MIC100
Where a name gives a salt, the structure may show the parent alone.
Provide the reported log10 of MIC of each item.
Field: value | Transform: log10 | Quantity: MIC | Unit: µg/mL

{"COMPOUND": "Cl.Cl.c1cc(OCCCCCCOc2ccc(C3=NCCN3)cc2)cc(-c2cc3ccc(C4=NCCN4)cc3o2)c1", "TARGET ENTITY": "Cryptococcus neoformans", "log10 of MIC": 0.19}

Hi there! I need log10 of MIC for each item below, if you can.
1. Cl.Cl.N=C(N)c1ccc(OCCCCCOc2cccc(-c3cc4ccc(C(=N)N)cc4o3)c2)cc1
2. Cl.Cl.N=C(N)c1ccc(OCCCCCOc2ccc(-c3cc4cc(C(=N)N)ccc4o3)cc2)cc1
3. Cl.Cl.N=C(N)c1ccc2oc(CCc3cc4cc(C(=N)N)ccc4o3)cc2c1

## Output
1: -0.41; 2: -0.11; 3: 2.00

Hey, can you go through the list below and give me log10 of MIC for every item?
1. Cl.Cl.N=C(N)c1ccc(OCCCCCOc2cccc(-c3cc4cc(C(=N)N)ccc4o3)c2)cc1
2. Cl.Cl.N=C(N)c1ccc(OCCCCCCOc2ccc(-c3cc4cc(C(=N)N)ccc4o3)cc2)cc1
3. CC(C)NC(=N)c1ccc2oc(CCCCc3cc4cc(C(=N)NC(C)C)ccc4o3)cc2c1 [Compound 21, dihydrochloride]

## Output
1: -0.11; 2: 0.49; 3: 2.00

----------
Please respond with reported melting point for every item in the list.

Past entries and their recorded results:
{"COMPOUND": "Cl.Cl.c1cc2oc(CCc3cc4cc(C5=NCCN5)ccc4o3)cc2cc1C1=NCCN1 [Compound 10]", "REPORTED VALUE": "366 °C (dec.)"}
{"COMPOUND": "Cl.Cl.c1cc(OCCCCCOc2ccc(C3=NCCN3)cc2)cc(-c2cc3cc(C4=NCCN4)ccc3o2)c1 [Compound 40]", "REPORTED VALUE": "180 to 182 °C"}
{"COMPOUND": "CC(C)NC(=N)c1ccc(OCCCCCCOc2ccc(-c3cc4ccc(C(=N)NC(C)C)cc4o3)cc2)cc1.Cl.Cl [Compound 78]", "REPORTED VALUE": "264 to 268 °C"}

# context switch: different compound, same melting point
## Input Fill in the blank: the reported melting point of Cl.Cl.c1cc2cc(Cc3cc4ccc(C5=NCCN5)cc4o3)oc2cc1C1=NCCN1 [Compound 7] is ____.
## Output 341 to 343 °C

The measured values listed here are drawn from patent US20080114047A1.
